Each entry below lists one item and its recorded kd Human value.
Biological target: T1, hBCMA (human BCMA) (Homo sapiens, UniProt Q02223)
T1 sequence (Q02223 1-184): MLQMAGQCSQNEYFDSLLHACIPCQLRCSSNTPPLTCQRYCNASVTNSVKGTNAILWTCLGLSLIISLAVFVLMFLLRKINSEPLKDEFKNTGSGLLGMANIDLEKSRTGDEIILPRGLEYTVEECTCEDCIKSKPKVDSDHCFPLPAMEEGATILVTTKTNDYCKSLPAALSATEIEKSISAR
Assay: Kinetics and affinity of hBCMA/human IgG interactions by SPR (Bio-Rad Proteon XPR36)
Format: binding
Conditions: human BCMA, 37° C.
Only the number, expressed in s⁻¹, is required.

## Input # lookup: kd Human of C01_Rd4_6 nM_C10: anti-BCMA antibody (antibody, V domains shown) VH: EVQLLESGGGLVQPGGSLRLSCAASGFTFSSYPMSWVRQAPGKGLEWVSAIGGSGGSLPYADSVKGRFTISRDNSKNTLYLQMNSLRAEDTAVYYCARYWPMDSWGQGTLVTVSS VL: EIVLTQSPGTLSLSPGERATLSCRASQSVSSVYLAWYQQKPGQAPRLLIYDASSRAPGIPDRFSGSGSGTDFTLTISRLEPEDFAVYYCQQYSTWPLTFGQGTKVEIK
## Output 0.00212

Proceed to the following item.
## Input Looking for the measured kd Human of COMBO_Rd4_6 nM_C02: anti-BCMA antibody (antibody, V domains shown) VH: EVQLLESGGGLVQPGGSLRLSCAASGFTFSSYAMNWVRQAPGKGLEWVSAISDSGGFVYYADSVKGRFTISRDNSKNTLYLQMNSLRAEDTAVYYCARYWPMDSWGQGTLVTVSS VL: EIVLTQSPGTLSLSPGERATLSCRASQSVSSSYLAWYQQKPGQAPRLLMYDASIRATGIPDRFSGSGSGTDFTLTISRLEPEDFAVYYCQQYEFWPLTFGQGTKVEIK , can you help?
## Output 0.000443
